# Method: Tmax in beagle dog at 2 mg/kg, iv by LC-MS/MS analysis
# Format: ADME, organism-based, Canis lupus familiaris
# Stated Conditions: in vivo
Property Measured: Tmax (min)
Just the number in min, nothing appended.

Tmax for "COCCN[C@H]1CC[C@H](Nc2cc(-c3csc(NCC4(C#N)CCOCC4)n3)c(Cl)cn2)CC1" is 1.2

---

# Test Target: Cyclin-dependent kinase 11B (Homo sapiens)
# Sequence (P21127 whole entry): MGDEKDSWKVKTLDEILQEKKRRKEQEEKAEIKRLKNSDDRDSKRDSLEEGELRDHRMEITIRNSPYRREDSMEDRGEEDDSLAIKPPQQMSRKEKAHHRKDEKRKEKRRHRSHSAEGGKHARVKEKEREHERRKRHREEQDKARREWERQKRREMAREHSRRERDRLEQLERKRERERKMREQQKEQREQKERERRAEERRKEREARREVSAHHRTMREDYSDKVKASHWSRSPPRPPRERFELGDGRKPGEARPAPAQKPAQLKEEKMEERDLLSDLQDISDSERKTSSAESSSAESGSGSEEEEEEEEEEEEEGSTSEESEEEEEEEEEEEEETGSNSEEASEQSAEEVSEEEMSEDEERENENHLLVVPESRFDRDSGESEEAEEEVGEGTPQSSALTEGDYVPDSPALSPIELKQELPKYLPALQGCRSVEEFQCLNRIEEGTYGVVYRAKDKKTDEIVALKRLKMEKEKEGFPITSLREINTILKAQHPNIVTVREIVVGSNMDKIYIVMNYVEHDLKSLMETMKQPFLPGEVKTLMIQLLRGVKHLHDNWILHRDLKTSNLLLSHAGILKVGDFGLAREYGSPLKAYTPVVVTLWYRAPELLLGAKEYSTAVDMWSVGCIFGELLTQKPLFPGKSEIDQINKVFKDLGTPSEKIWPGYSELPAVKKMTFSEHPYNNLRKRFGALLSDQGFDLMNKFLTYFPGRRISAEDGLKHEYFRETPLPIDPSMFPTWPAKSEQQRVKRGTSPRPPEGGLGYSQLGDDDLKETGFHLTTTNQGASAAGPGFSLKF
# Method: Inhibition of recombinant GST-tagged inactive state of human CDK11
Property Measured: IC50

IC50 on Cyclin-dependent kinase 11B (Homo sapiens) for "COCCN[C@H]1CC[C@H](Nc2cc(-c3csc(NCC4(C#N)CCOCC4)n3)c(Cl)cn2)CC1" is > 10 µM
